Study system: Autotaxin (Homo sapiens)
Test: Inhibition of human ATX using FS-3 as substrate measured after 1 hrs by fluorescence based […] assay
pIC50: −log10 of the molar value.
Experimental readout: pIC50

1. O=C(Nc1ccc(Br)cc1)c1cc(S(=O)(=O)N2CCCCC2)c(Cl)cc1Cl; 7.68

###

Study system: Autotaxin (Mus musculus)
Test: Inhibition of ATX in mouse plasma
Experimental readout: IC50 (nM)

1. CCCn1cc(-n2c(C)c(Sc3cccc(C(=O)O)c3F)c3ccc(Cl)c(F)c32)cn1; 22

###

Study system: Autotaxin (Homo sapiens, UniProt Q13822)
Test: Inhibition of ATX (unknown origin) using […] as substrate
pIC50: −log10 of the molar value.
Experimental readout: pIC50

1. CCCn1cc(-n2c(C)c(Sc3cccc(C(=O)O)c3F)c3ccc(Cl)c(F)c32)cn1; 8.96
